Test system: OVCAR-8 ovarian
Assay: NCI-60 one-dose screen, 48 h (100 = growth as untreated, 0 = no growth, -100 = all killed)
Settings: 10 µM unless noted
Compounds without any hit were thinned out: in the full panel of roughly 83,000, 20% have a hit.

[
  {
    "compound": "COc1ccc(/C(=C(\\c2ccccc2)[N+](=O)[O-])c2ccc(OCCN3CCCC3)cc2)cc1",
    "growth, %": 92.6
  },
  {
    "compound": "Nc1ccc(S(=O)(=O)c2ccc(NO)cc2)cc1",
    "growth, %": 95.6
  },
  {
    "compound": "COc1cc([C@@H]2c3cc4c(cc3[C@H](O)[C@H]3COC[C@@H]23)OCO4)cc(OC)c1OC",
    "growth, %": 98.9
  },
  {
    "compound": "CCOC(=O)C1C(=O)C(=O)N(C(C)C)C1C(=O)OCC (stereo not given)",
    "growth, %": 91.4
  },
  {
    "compound": "O=C(Nc1ccc(-n2cc(-c3ccncc3)c(-c3ccc(Cl)c(O)c3)n2)cc1)c1cc(Cl)cc(Cl)c1",
    "growth, %": 58.5
  },
  {
    "compound": "O=C1c2cc([N+](=O)[O-])ccc2-c2cc(Cl)c(NC(=O)C(F)(F)F)cc21",
    "growth, %": 121
  },
  {
    "compound": "CC(=O)CC(=O)OC/C=C(/C)CCC=C(C)C",
    "growth, %": 103
  },
  {
    "compound": "O=C(Nc1ccc(-n2cc(-c3ccncc3)c(-c3ccc(Cl)c(O)c3)n2)cc1)c1ccc(Cl)c(C(F)(F)F)c1",
    "growth, %": -1.91
  },
  {
    "compound": "Cc1nc2ccccc2c(=O)n1-c1cccc(OCc2cn(-c3cccc(O)c3)nn2)c1",
    "growth, %": 88.6
  },
  {
    "compound": "NC(N)=N/N=C/c1cccc(Br)c1",
    "growth, %": 110
  }
]

----------
System: OVCAR-5 ovarian
Experiment: NCI-60 one-dose screen, 48 h (100 = growth as untreated, 0 = no growth, -100 = all killed)
Details: 10 µM unless noted
The panel holds about 83,000 compounds, 20% with a hit somewhere; the sample as a whole holds those more often.

[
  {
    "molecule": "CCCCCCCCCCCCc1ccc([N+](CC)(CC)CC)cc1",
    "growth (%)": 92.3
  },
  {
    "molecule": "CCOC(=O)c1csc(-c2ccc(COC(=O)c3ccccc3)o2)n1",
    "growth (%)": 102
  },
  {
    "molecule": "Cc1c(CN(C)C)cc(C(C)C)cc1C(C)C",
    "growth (%)": 115
  },
  {
    "molecule": "C[C@]12C=CC(=O)C=C1[C@@H](F)C[C@@H]1[C@@H]2[C@@H](O)C[C@@]2(C)[C@H]1CC[C@]2(O)C(=O)CO",
    "growth (%)": 77.2
  },
  {
    "molecule": "CCOC(=O)c1c(C)oc2ncnc(Nc3ccc(C(=O)NCCc4ccccc4)cc3)c12",
    "growth (%)": 110
  },
  {
    "molecule": "COc1cccc(Cn2cc3c(c2)-c2oncc2CC3)c1",
    "growth (%)": 42.6
  },
  {
    "molecule": "C=CCNC(=S)NNc1ccc([N+](=O)[O-])cn1",
    "growth (%)": 95.6
  },
  {
    "molecule": "CC(O)c1cc[cH-]c1.[Fe+2].c1cc[cH-]c1 (stereo unspecified)",
    "growth (%)": 100
  },
  {
    "molecule": "CCCCCCCCCCCCCCCC[n+]1cccc(C#N)c1",
    "growth (%)": 79.7
  },
  {
    "molecule": "CC(=O)CCS(=O)c1ccccc1 (stereo unspecified)",
    "growth (%)": 108
  },
  {
    "molecule": "N#Cc1ccc(NC2c3ccccc3CC2O)cc1 (stereo unspecified)",
    "growth (%)": 113
  }
]

----------
In this section, each of the compounds is paired with its reported growth.
Tested on: SK-MEL-28 melanoma
Assay: NCI-60 one-dose screen, 48 h (100 = growth as untreated, 0 = no growth, -100 = all killed)
Conditions: 10 µM unless noted
Compounds without any hit were thinned out: in the full panel of roughly 83,000, 20% have a hit.

[
  {
    "compound": "Cn1c2ccccc2c2ccccc21",
    "target": "SK-MEL-28 melanoma",
    "growth, %": 102
  },
  {
    "compound": "OCCN1CCCN(CCCN2c3ccccc3Sc3ccc(C(F)(F)F)cc32)CC1",
    "target": "SK-MEL-28 melanoma",
    "growth, %": 30.7
  },
  {
    "compound": "CCCNC(=O)Oc1ccc(/C(=C(/C)Cc2ccc(OC)cc2)c2ccc(OCCN3CCCCC3)cc2)cc1",
    "target": "SK-MEL-28 melanoma",
    "growth, %": 100
  },
  {
    "compound": "CCC(C)(CC)c1ccc(O)c(C)c1",
    "target": "SK-MEL-28 melanoma",
    "growth, %": 110
  },
  {
    "compound": "C=C(C)[C@@H]1CC[C@]2(COC(=O)c3ccccc3C(=O)O)CC[C@]3(C)[C@H](CC[C@@H]4[C@@]5(C)CCCNC(C)(C)[C@@H]5CC[C@]43C)[C@@H]12",
    "target": "SK-MEL-28 melanoma",
    "growth, %": 74.4
  },
  {
    "compound": "CCCCCCCCCCC(C[N+](C)(C)C/C=C/c1ccccc1)C(O)c1ccccc1 (stereo not given)",
    "target": "SK-MEL-28 melanoma",
    "growth, %": 21.2
  },
  {
    "compound": "COc1ccc(-n2nnnc2-c2cn[nH]c2C(F)(F)F)cc1",
    "target": "SK-MEL-28 melanoma",
    "growth, %": 96.2
  },
  {
    "compound": "COc1ccc(Cn2cc3c(c2-c2ccccc2)CCc2cnoc2-3)cc1OC",
    "target": "SK-MEL-28 melanoma",
    "growth, %": 58.6
  },
  {
    "compound": "Cc1cc(CSc2ccc(Cl)cc2)ccc1N",
    "target": "SK-MEL-28 melanoma",
    "growth, %": 111
  },
  {
    "compound": "CSC1=Nc2c(c(C)c(-c3ccccc3)n2CCCCl)C2=NC(=O)CN12",
    "target": "SK-MEL-28 melanoma",
    "growth, %": 55.9
  },
  {
    "compound": "COc1ccc(/C=C(/C(=O)N2CCCCC2)c2cc(OC)c(OC)c(OC)c2)cc1",
    "target": "SK-MEL-28 melanoma",
    "growth, %": 54.1
  },
  {
    "compound": "O=C(Nc1cccc(Cn2c(=O)[nH]c3ccc(Oc4ncccn4)cc3c2=O)c1)c1cc(Cl)cc(Cl)c1",
    "target": "SK-MEL-28 melanoma",
    "growth, %": 60.7
  },
  {
    "compound": "COc1cc(-c2nn(-c3ccc(NC(=O)Nc4ccc(Cl)c(Cl)c4)cc3)cc2-c2ccncc2)ccc1Cl",
    "target": "SK-MEL-28 melanoma",
    "growth, %": 41.5
  },
  {
    "compound": "C[C@@H](c1ccc2c(c1)[nH]c1ccc(Cl)cc12)c1nc2ccc(Cl)cc2[nH]1",
    "target": "SK-MEL-28 melanoma",
    "growth, %": 99.8
  },
  {
    "compound": "Nc1nc2c(c3cnccc13)C(c1cccc(Br)c1)Cc1cnccc1-2 (stereo not given)",
    "target": "SK-MEL-28 melanoma",
    "growth, %": 49.4
  },
  {
    "compound": "CCCCCN1CCN(C(CC(=O)c2ccccc2)C(=O)c2ccccc2)CC1 (stereo not given)",
    "target": "SK-MEL-28 melanoma",
    "growth, %": 119
  },
  {
    "compound": "O=C(Oc1ccccc1)c1ccccc1Cl",
    "target": "SK-MEL-28 melanoma",
    "growth, %": 107
  },
  {
    "compound": "CCOC(=O)NNc1[nH]c(-c2ccc(OC)cc2)cc1C#N",
    "target": "SK-MEL-28 melanoma",
    "growth, %": 182
  },
  {
    "compound": "COc1cc(OC)cc(-c2ccc(-c3ccc(C(=N)N)cc3)s2)c1",
    "target": "SK-MEL-28 melanoma",
    "growth, %": -87.7
  },
  {
    "compound": "Oc1ccc(Br)cc1/C=N/NC(=S)NC12CC3CC(CC(C3)C1)C2",
    "target": "SK-MEL-28 melanoma",
    "growth, %": 51.2
  }
]
